# measurement_target: HIV-1 protease (Human immunodeficiency virus type 1 group M subtype B)
# method_notes: biochemical
# stated_conditions: Table 5; pH 6.5, 37° C.; read-out: IC50
pIC50: −log10 of the molar value.
measured_parameter: pIC50

[1] CCOC(=O)CCCOc1ccc(C[C@H](NC(=O)[C@H](CC(N)=O)NC(=O)OC(C)(C)C)[C@@H](O)CN2CCC[C@H]2C(=O)NC(C)(C)C)cc1
[2] CCOC(=O)CCCOc1ccc(C[C@H](NC(=O)[C@H](CC(N)=O)NC(=O)OC(C)(C)C)[C@H](O)CN2CCC[C@H]2C(=O)NC(C)(C)C)cc1
Request: Could you check which of 1 and 2 has a smaller value for pIC50? State the label of the item chosen.
Result: 1

----------
# measurement_target: HIV-1 protease (Human immunodeficiency virus type 1 group M subtype B, UniProt P03369)
# method_notes: biochemical
# stated_conditions: Table 4; rac (R and S isomer together); read-out: IC50
measured_parameter: IC50 (µM)

compound | unit_annotation | recorded_value
CC(C)NC(=O)C(Cc1ccccc1)NC[C@H](O)[C@@H]1Cc2ccc(cc2)OCCCC(=O)N[C@@H](CC(N)=O)C(=O)N1 (stereo partly shown) [Compound 33] | µM | 42
CC(C)(C)NC(=O)C(Cc1ccccc1)NC[C@H](O)[C@@H]1Cc2ccc(cc2)OCCCC(=O)N[C@@H](CC(N)=O)C(=O)N1 (stereo partly shown) [Compound 31] | µM | 70

[A] CC(C)(C)NC(=O)C(Cc1ccccc1)NC[C@@H](O)[C@@H]1Cc2ccc(cc2)OCCCC(=O)N[C@@H](CC(N)=O)C(=O)N1 (stereo partly shown) [Compound 30]
[B] CC(C)NC(=O)C(Cc1ccccc1)NC[C@@H](O)[C@@H]1Cc2ccc(cc2)OCCCC(=O)N[C@@H](CC(N)=O)C(=O)N1 (stereo partly shown) [Compound 32]
Request: Which value of IC50 is greater, the one for A or the one for B ? State the label of the item chosen.
Result: A
(A: 70 µM, B: 42 µM)

----------
# measurement_target: HIV-1 protease (Human immunodeficiency virus type 1 group M subtype B)
# method_notes: biochemical
# stated_conditions: Table 1; pH 6.5, 37° C.; read-out: IC50
pIC50: −log10 of the molar value.
measured_parameter: pIC50

Before answering, review these 2 worked examples.
compound | measurement_target | pIC50
CC[C@H](C)[C@H](NC(=O)[C@@H]1CCCN1C[C@@H](O)[C@@H]1Cc2ccc(cc2)OCCNCC(=O)N[C@@H](CC(N)=O)C(=O)N1)C(=O)N[C@H](C(N)=O)C(C)C | HIV-1 protease (Human immunodeficiency virus type 1 group M subtype B) | 6.15
CC[C@H](C)[C@H](NC(=O)[C@@H]1CCCN1C[C@H](O)[C@@H]1Cc2ccc(cc2)OCCNCC(=O)N[C@@H](CC(N)=O)C(=O)N1)C(=O)N[C@H](C(N)=O)C(C)C | HIV-1 protease (Human immunodeficiency virus type 1 group M subtype B) | 7.43

[1] CC[C@H](C)[C@H](NC(=O)[C@@H]1CCCN1C[C@@H](O)[C@@H]1Cc2ccc(cc2)OCC(O)C(O)C(=O)N[C@@H](CC(N)=O)C(=O)N1)C(=O)N[C@H](C(N)=O)C(C)C (stereo partly shown)
[2] CC[C@H](C)[C@H](NC(=O)[C@@H]1CCCN1C[C@H](O)[C@@H]1Cc2ccc(cc2)OCC(O)C(O)C(=O)N[C@@H](CC(N)=O)C(=O)N1)C(=O)N[C@H](C(N)=O)C(C)C (stereo partly shown)
Request: Which value of pIC50 is greater, the one for 1 or the one for 2 ? State the label of the item chosen.
Result: 2
(2: 7.31, 1: 6.22)

----------
# measurement_target: HIV-1 protease (Human immunodeficiency virus type 1 group M subtype B)
# method_notes: biochemical
# stated_conditions: read-out: IC50
pIC50: −log10 of the molar value.
measured_parameter: pIC50

Before answering, review these 4 worked examples.
compound | measurement_target | recorded_value
CC[C@H](C)[C@H](NC(=O)[C@@H]1CCCN1C[C@@H](O)[C@@H]1Cc2ccc(cc2)OCCCC(=O)N[C@@H](CC(N)=O)C(=O)N1)C(N)=O | HIV-1 protease (Human immunodeficiency virus type 1 group M subtype B) | 5.02
CC[C@H](C)[C@@H]1NC(=O)[C@@H](NCC(O)[C@H](Cc2ccccc2)NC(=O)c2cccc(C)c2)Cc2ccc(cc2)OCCCNC1=O (stereo partly shown) | HIV-1 protease (Human immunodeficiency virus type 1 group M subtype B) | 7.30
CC(C)CN(CC(=O)NC(C)(C)C)C[C@H](O)[C@@H]1Cc2ccc(cc2)OCCCC(=O)N[C@@H](CC(N)=O)C(=O)N1 | HIV-1 protease (Human immunodeficiency virus type 1 group M subtype B) | 5.72
CC[C@H](C)[C@@H]1NC(=O)[C@@H](NC[C@@H](O)[C@@H]2Cc3ccc(cc3)OCCCC(=O)N[C@@H](C(C)C)C(=O)N2)Cc2ccc(cc2)OCCCNC1=O | HIV-1 protease (Human immunodeficiency virus type 1 group M subtype B) | 9.00

[A] O=C1N(Cc2ccc(CO)cc2)[C@H](Cc2ccccc2)[C@H](O)[C@@H](O)[C@@H](Cc2ccccc2)N1Cc1ccc(CO)cc1 [Compound 94, reference compound]
[B] CC(C)(C)NC(=O)[C@@H]1CCCN1C[C@@H](O)[C@@H]1Cc2ccc(cc2)OCCCC(=O)N[C@@H](CC(N)=O)C(=O)N1
[C] CC(C)CCN(C[C@@H](O)[C@@H]1Cc2ccc(cc2)OCCCCCC(=O)N[C@@H](C(C)C)C(=O)N1)S(=O)(=O)c1ccc(N)cc1
Request: Rank by pIC50 (largest to smallest). Form entry: ranked labels (order as requested).
Result: A, C, B
(A: 9.00, C: 8.70, B: 6.71)

Data origin, for the record: patent US6043357A
